Every entry's value here was drawn from patent US20180030151A1.

# system-under-test: recombinant human TFPI (tissue factor pathway inhibitor) (human, UniProt P10646 29-304)
# assay-comment: cell-based or functional assay
measured-quantity: % of Normalized, TF/FVIIa/FX complex assay, Ab 1.56 nM

Fill blank: measured % of Normalized, TF/FVIIa/FX complex assay, Ab 1.56 nM of the binder clone 12 (antibody, V domains shown, human IgG4/kappa IgG as purified; also called No. 12 antibody) VH: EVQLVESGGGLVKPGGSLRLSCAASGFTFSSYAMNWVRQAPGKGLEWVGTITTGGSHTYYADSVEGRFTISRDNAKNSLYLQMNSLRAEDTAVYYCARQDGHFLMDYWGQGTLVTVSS VL: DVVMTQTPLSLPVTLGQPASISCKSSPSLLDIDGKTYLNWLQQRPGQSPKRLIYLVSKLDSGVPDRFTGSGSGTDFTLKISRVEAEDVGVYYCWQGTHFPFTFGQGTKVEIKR is ____.
4.8%
